Measured TGI of individual entries
test system: MDA-MB-468 breast; assay: NCI tumour cell line growth inhibition, 48 h
Enter your answer as a number in µM; do not include the unit.

COc1ccc(/C=C/C(=O)c2ccccc2)cc1OC    18.6
O=C(NC(Cc1ccccc1)C(=O)CCl)OCc1ccccc1 (stereo unspecified)    15.4
COc1cccc(/C=C2\CCc3ccccc3C2=O)c1    29.3
CCN(CC)CC(O)c1cc(-c2ccc(Cl)cc2)nc2cc(Cl)ccc12 (stereo unspecified)    3.53
Cc1ccnc(NC(c2ccccc2)c2ccc3cccnc3c2O)c1 (stereo unspecified)    14.3
CC/C(=C(/CC)c1ccc(O)cc1)c1ccc(O)cc1    15.1
Clc1ccc(Nc2ncnc3c2sc2ncccc23)c(Cl)c1    73.8
Cc1cc2nc3c4cc([N+](=O)[O-])ccc4n(CCN(C)C)c3nc2cc1C    1.38

Query COC1/C=C/OC2(C)Oc3c(C)c(O)c4c(O)c(c(C=NOC(c5ccccc5)c5ccccc5)c(O)c4c3C2=O)NC(=O)/C(C)=C/C=C/C(C)C(O)C(C)C(O)C(C)C(OC(C)=O)C1C (stereo unspecified) yields TGI of 2.78

Query O=[N+]([O-])c1cccc([I+]c2ccccc2)c1 yields TGI of 17.4
